assay: in vivo; settings: rat, po, 15 mg/kg
endpoint: Cmax (ng/mL)
Write the number in ng/mL without appending the unit.

Entry `Cn1c(=O)c2[nH]cnc2n(C)c1=O` , Cmax reported as 20300

* * *

Assay: in vivo
Conditions: rat, po, 15 mg/kg
Description: Groups of the so-treated animals were killed by carotid section 15', 30', 1 h, 2 h, 3 h, 4 h, 6 h, and 8 h after administration of the theophylline. The blood was collected in herparinized, centrifuged tubes, and the plasma was decanted. The theophylline blood level was determined in plasma samples after extraction by liquid chromatography.
endpoint: concentration at 6 h (ng/mL)
Write the number in ng/mL without appending the unit.

Entry `Cn1c(=O)c2[nH]cnc2n(C)c1=O` , concentration at 6 h reported as 8040

* * *

test: oral toxicity (LD50) in mice; conditions: mouse, in vivo, read-out: LD50 orally in mice
endpoint: LD50 (mg/kg)
Write the number in mg/kg without appending the unit.

Past entries and their recorded results:
>>> recorded_number("CC(=O)c1ccc(C=CC(=O)NCCO)cc1 [Compound VI, N-(2-hydroxyethyl)-4-acetylcinnamamide]")
3200
>>> recorded_number("O=C(C=Cc1ccccc1)NCCO [Compound I, N-(2-hydroxyethyl)cinnamamide]")
3000
>>> recorded_number("CN(CCO)C(=O)C=Cc1ccccc1 [Compound III, N-methyl, N-(2-hydroxyethyl)cinnamamide]")
3000
>>> recorded_number("CC1(C)OCCN1C(=O)C=Cc1ccc(F)cc1")
2000
>>> recorded_number("O=C(C=Cc1ccc(Cl)cc1)NCCO [Compound II, N-(2-hydroxyethyl)-4-chlorocinnamamide]")
1600

Entry CC(CO)NC(=O)C=Cc1ccccc1 (stereo not drawn) [Compound IV, N-[2-(1-hydroxypropyl)]cinnamamide] , LD50 reported as 3200

* * *

Assay: in vivo
Settings: rat, po, 15 mg/kg
Method: Groups of the so-treated animals were killed by carotid section 15', 30', 1 h, 2 h, 3 h, 4 h, 6 h, and 8 h after administration of the theophylline. The blood was collected in herparinized, centrifuged tubes, and the plasma was decanted. The theophylline blood level was determined in plasma samples after extraction by liquid chromatography.
endpoint: half-life

Entry Cn1c(=O)c2[nH]cnc2n(C)c1=O [theophylline, 1,3-dimethylxanthine] , half-life reported as 3.47 h

* * *

assay: in vivo; details: rat, po, 15 mg/kg
endpoint: AUC at 8 h (ng·h/mL)
Write the number in ng·h/mL without appending the unit.

Entry `Cn1c(=O)c2[nH]cnc2n(C)c1=O` , AUC at 8 h reported as 95100

* * *

test: in vivo; details: rat, po, 15 mg/kg
endpoint: concentration at 4 h (µg/mL)
Write the number in µg/mL without appending the unit.

Entry Cn1c(=O)c2[nH]cnc2n(C)c1=O [theophylline, 1,3-dimethylxanthine] , concentration at 4 h reported as 12

* * *

test: in vivo; conditions: rat, po, 15 mg/kg
endpoint: concentration at 0.25 h (ng/mL)
Write the number in ng/mL without appending the unit.

Entry `Cn1c(=O)c2[nH]cnc2n(C)c1=O` , concentration at 0.25 h reported as 17500

* * *

test: in vivo; settings: rat, po, 15 mg/kg
endpoint: concentration at 0.5 h (ng/mL)
Write the number in ng/mL without appending the unit.

Entry `Cn1c(=O)c2[nH]cnc2n(C)c1=O` , concentration at 0.5 h reported as 20300

* * *

test: in vivo; conditions: rat, po, 15 mg/kg
endpoint: concentration at 8 h (ng/mL)
Write the number in ng/mL without appending the unit.

Entry Cn1c(=O)c2[nH]cnc2n(C)c1=O [theophylline, 1,3-dimethylxanthine] , concentration at 8 h reported as 4320

* * *

List of LD50 values.
assay: oral toxicity (LD50) in mice; settings: mouse, in vivo, read-out: LD50 orally in mice

Past entries and their recorded results:
>>> result("CC1(C)OCCN1C(=O)C=Cc1ccc(Cl)cc1")
"> 3200 mg/kg"
>>> result("O=C(C=Cc1ccc(F)cc1)NCCO [Compound V, N-(2-hydroxyethyl)-4-fluorocinnamamide]")
"> 3200 mg/kg"

Now consider a different compound.
Entry `CC1(C)OCCN1C(=O)C=Cc1ccccc1` , LD50 reported as > 3200 mg/kg
